Reported inhibition at 10 µM values for the following molecules.
# Test system: A498
# test.protocol: NCI single-dose screen (SRB)
# Assay type: cell-based
# experimental.conditions: Homo sapiens; Renal Cancer A498; 10^−5 M; read-out: Growth inhibition percentage
measurement.type: inhibition at 10 µM (%)

> print(dat)
                                   molecule  reported.result
1  COC(=O)C=C1SC(=NNC(=O)c2cc3ccc2CCc2ccc(cc2)CC3)N(c2ccccc2)C1=O [Compound 3a]             50.8
2  CCN1C(=O)C(=CC(=O)OC)SC1=NNC(=O)c1cc2ccc1CCc1ccc(cc1)CC2 [Compound 3e]             6.63
3  COC(=O)C=C1SC(=Nc2cccnc2)N(NC(=O)c2cc3ccc2CCc2ccc(cc2)CC3)C1=O [Compound 3c]             3.59
4  COC(=O)/C=C1/S/C(=N/NC(=O)c2cc3ccc2CCc2ccc(cc2)CC3)N(C2CC2)C1=O [Compound 3f]             3.39
5  COC(=O)C=C1SC(=NNC(=O)c2cc3ccc2CCc2ccc(cc2)CC3)N(Cc2ccccc2)C1=O [Compound 3b]             53.9
6  C=CCN1C(=O)C(=CC(=O)OC)SC1=NNC(=O)c1cc2ccc1CCc1ccc(cc1)CC2 [Compound 3d]             12.1
